IC50 listing for selected compounds.
MEASURED TARGET: Tubulin
TEST: Inhibition of tubulin polymerization (unknown origin) incubated for 15 mins followed by GTP addition and measured for 20 mins by spectrophotometry

{"columns": ["STRUCTURE SMILES STRING", "MEASURED TARGET", "MEASUREMENT UNITS", "BOUND TYPE", "IC50"],
 "data": [
  ["COc1cc(C(=O)c2cn(-c3ccc(N)cc3)cc2-c2ccc(N)cc2)cc(OC)c1OC", "Tubulin", "nM", "=", 380],
  ["COc1cc(C(=O)c2cn(-c3ccccc3)cc2-c2ccc([N+](=O)[O-])cc2)cc(OC)c1OC", "Tubulin", "nM", ">", 20000],
  ["COc1cc(C(=O)c2cn(-c3cccc(N)c3)cc2-c2ccccc2Cl)cc(OC)c1OC", "Tubulin", "nM", "=", 630],
  ["COc1cc(C(=O)c2cn(-c3ccc(C)cc3)cc2-c2ccccc2Cl)cc(OC)c1OC", "Tubulin", "nM", "=", 480],
  ["COc1cc(C(=O)c2cn(-c3ccc(F)cc3)cc2-c2ccccc2[N+](=O)[O-])cc(OC)c1OC", "Tubulin", "nM", "=", 680],
  ["COc1cc(C(=O)c2cn(-c3ccccc3)cc2-c2ccc(N)cc2)cc(OC)c1OC", "Tubulin", "nM", "=", 1200],
  ["COc1cc(C(=O)c2cn(-c3cccc(C)c3)cc2-c2cccc(N)c2)cc(OC)c1OC", "Tubulin", "nM", "=", 910],
  ["COc1cc(C(=O)c2cn(-c3ccc(N)cc3)cc2-c2ccccc2)cc(OC)c1OC", "Tubulin", "nM", "=", 1600],
  ["COc1cc(C(=O)c2cn(-c3cccc(C)c3)cc2-c2ccccc2[N+](=O)[O-])cc(OC)c1OC", "Tubulin", "nM", "=", 1200]
]}

* * *

MEASURED TARGET: Tubulin (Homo sapiens) (UniProt P68371+Q9H4B7+P0DPH7+P68366+Q13509+Q71U36+P04350+Q3ZCM7+P07437+P68363+Q9BQE3+Q6PEY2+Q13885+Q9BVA1+Q9BUF5)
TEST: Inhibition of [3H]colchicine binding to tubulin (unknown origin) at 5 uM incubated for 10 mins by DEAE-cellulose filter method relative to control
Assay type: protein-complex assay
Quick rule for you: inhibition at 30% or higher means Satisfied, lower means Not satisfied.

{"columns": ["STRUCTURE SMILES STRING", "QUALITATIVE LABEL"],
 "data": [
  ["COc1cc(C(=O)c2cn(-c3cccc(N)c3)cc2-c2cccc([N+](=O)[O-])c2)cc(OC)c1OC", "Satisfied"],
  ["COc1cccc(-n2cc(C(=O)c3cc(OC)c(OC)c(OC)c3)c(-c3ccccc3)c2)c1", "Not satisfied"],
  ["COc1cc(C(=O)c2cn(-c3ccc(F)cc3)cc2-c2ccccc2[N+](=O)[O-])cc(OC)c1OC", "Satisfied"],
  ["COc1cc(C(=O)c2cn(-c3cccc(Br)c3)cc2-c2ccccc2)cc(OC)c1OC", "Not satisfied"],
  ["COc1cc(C(=O)c2cn(-c3ccc(Cl)cc3)cc2-c2ccccc2)cc(OC)c1OC", "Satisfied"],
  ["COc1cc(C(=O)c2cn(-c3ccc(N)cc3)cc2-c2cccc([N+](=O)[O-])c2)cc(OC)c1OC", "Not satisfied"],
  ["COc1cc(C(=O)c2cn(-c3ccccc3)cc2-c2ccc(Cl)cc2)cc(OC)c1OC", "Not satisfied"],
  ["COc1cc(C(=O)c2cn(-c3cccc(C)c3)cc2-c2cccc(N)c2)cc(OC)c1OC", "Satisfied"]
]}

* * *

MEASURED TARGET: Tubulin
TEST: Inhibition of tubulin polymerization (unknown origin) incubated for 15 mins followed by GTP addition and measured for 20 mins by spectrophotometry
// assign Met if IC50 falls strictly below 500 nM, else Not met (ties count as Not met)

{"columns": ["STRUCTURE SMILES STRING", "MEASURED TARGET", "QUALITATIVE LABEL"],
 "data": [
  ["COc1cc(C(=O)c2cn(-c3ccccc3N)cc2-c2ccccc2)cc(OC)c1OC", "Tubulin", "Not met"],
  ["COc1cc(C(=O)c2cn(-c3ccccc3)cc2-c2ccccc2[N+](=O)[O-])cc(OC)c1OC", "Tubulin", "Not met"],
  ["COc1cc(C(=O)c2cn(-c3ccc(F)cc3)cc2-c2cccc([N+](=O)[O-])c2)cc(OC)c1OC", "Tubulin", "Not met"],
  ["COc1cc(C(=O)c2cn(-c3ccc(C)cc3)cc2-c2ccc(N)cc2)cc(OC)c1OC", "Tubulin", "Met"],
  ["COc1cc(C(=O)c2cn(-c3ccc(C)cc3)cc2-c2cccc(N)c2)cc(OC)c1OC", "Tubulin", "Met"],
  ["COc1cccc(-c2cn(-c3ccccc3)cc2C(=O)c2cc(OC)c(OC)c(OC)c2)c1", "Tubulin", "Met"],
  ["COc1cc(C(=O)c2cn(-c3cccc(Br)c3)cc2-c2ccccc2)cc(OC)c1OC", "Tubulin", "Not met"],
  ["COc1cc(C(=O)c2cn(-c3cccc(C)c3)cc2-c2cccc([N+](=O)[O-])c2)cc(OC)c1OC", "Tubulin", "Not met"],
  ["COc1cc(C(=O)c2cn(-c3cccc(F)c3)cc2-c2ccccc2[N+](=O)[O-])cc(OC)c1OC", "Tubulin", "Not met"],
  ["COc1cc(C(=O)c2cn(-c3ccccc3)cc2-c2cccc(Cl)c2)cc(OC)c1OC", "Tubulin", "Not met"],
  ["COc1cc(C(=O)c2cn(-c3cccc(C)c3)cc2-c2ccc([N+](=O)[O-])cc2)cc(OC)c1OC", "Tubulin", "Not met"],
  ["COc1cc(C(=O)c2cn(-c3ccc(N)cc3)cc2-c2ccccc2Cl)cc(OC)c1OC", "Tubulin", "Not met"],
  ["COc1ccc(-c2cn(-c3ccccc3)cc2C(=O)c2cc(OC)c(OC)c(OC)c2)cc1", "Tubulin", "Met"],
  ["COc1cc(C(=O)c2cn(-c3cccc(Cl)c3)cc2-c2ccccc2)cc(OC)c1OC", "Tubulin", "Not met"],
  ["COc1cc(C(=O)c2cn(-c3ccc(C)cc3)cc2-c2cccc([N+](=O)[O-])c2)cc(OC)c1OC", "Tubulin", "Not met"],
  ["COc1cc(C(=O)c2cn(-c3ccccc3[N+](=O)[O-])cc2-c2ccccc2)cc(OC)c1OC", "Tubulin", "Not met"],
  ["COc1cc(C(=O)c2cn(-c3cccc(C)c3)cc2-c2ccccc2F)cc(OC)c1OC", "Tubulin", "Not met"],
  ["COc1cc(C(=O)c2cn(-c3cccc(C)c3)cc2-c2ccc(N)cc2)cc(OC)c1OC", "Tubulin", "Met"],
  ["COc1ccc(Br)cc1-c1cn(-c2ccccc2)cc1C(=O)c1cc(OC)c(OC)c(OC)c1", "Tubulin", "Not met"],
  ["COc1cc(C(=O)c2cn(-c3ccccc3)cc2-c2ccc(Cl)cc2)cc(OC)c1OC", "Tubulin", "Not met"],
  ["COc1cc(C(=O)c2cn(-c3ccccc3)cc2-c2ccccc2Cl)cc(OC)c1OC", "Tubulin", "Not met"],
  ["COc1ccc(-n2cc(C(=O)c3cc(OC)c(OC)c(OC)c3)c(-c3ccccc3)c2)cc1", "Tubulin", "Not met"],
  ["COc1cc(C(=O)c2cn(-c3ccccc3)cc2-c2ccc(Br)cc2)cc(OC)c1OC", "Tubulin", "Not met"],
  ["COc1cc(C(=O)c2cn(-c3cccc([N+](=O)[O-])c3)cc2-c2ccccc2)cc(OC)c1OC", "Tubulin", "Not met"],
  ["COc1cc(C(=O)c2cn(-c3ccccc3)cc2-c2ccccc2Br)cc(OC)c1OC", "Tubulin", "Not met"],
  ["COc1cc(C(=O)c2cn(-c3ccc(F)cc3)cc2-c2cccc(N)c2)cc(OC)c1OC", "Tubulin", "Met"],
  ["COc1cc(C(=O)c2cn(-c3ccc(C)cc3)cc2-c2ccccc2F)cc(OC)c1OC", "Tubulin", "Not met"],
  ["COc1cc(C(=O)c2cn(-c3ccccc3)cc2/C=C/c2ccccc2)cc(OC)c1OC", "Tubulin", "Not met"]
]}
